tested on: carrageenan edema in the rat's paw; assay: carrageenan edema in the rat's paw, physical forms of PGA and Curcumin; assay type: in vivo; details: 5 hr; rat; PGA 30, PGA-m 20, CUR-m 10, PGACUR-m 30, PGA-sm 20 mg/kg
Recorded edema as a percentage of the edema produced only by carrageenan (value of 100) by entry
observedProperty: edema as a percentage of the edema produced only by carrageenan (value of 100) (%)

>>> df
                                   molecule  unitofmeasurement  testresult
0  CCCCCCCCCCCCCCCC(=O)N[C@H]1C(O)O[C@H](CO)[C@@H](O)[C@@H]1O (stereo partly drawn) [PGA-sm, N-palmitoyl-D-glucosamine]                  %        98.0
1  COc1cc(/C=C/C(=O)CC(=O)/C=C/c2ccc(O)c(OC)c2)ccc1O [CUR-m, Curcumin, reference compound]                  %        97.4
2  CCCCCCCCCCCCCCCC(=O)N[C@H]1C(O)O[C@H](CO)[C@@H](O)[C@@H]1O (stereo partly drawn) [PGA-m, N-palmitoyl-D-glucosamine]                  %        75.5
3  CCCCCCCCCCCCCCCC(=O)N[C@H]1C(O)O[C@H](CO)[C@@H](O)[C@@H]1O (stereo partly drawn) [PGA, N-palmitoyl-D-glucosamine]                  %       100.0
